Recorded values, source PubChem BioAssay (EPA / NIEHS).

# Read-out: Transforming growth factor beta 1 (TGFb1), TGFB1 (gene 7040)
# EXPERIMENTAL_PROTOCOL: BSK_KF3CT_TGFb1: BioMAP Diversity Plus: KF3CT Assay for Transforming growth factor beta 1 (TGFb1) Biomarker Activity (AID 2283072)
# EXPERIMENTAL_SETUP: primary human keratinocytes with fibroblasts; actives raise or lower the signal
Active and inactive are the calls of the source. The calls were made as follows: active = hit-call score of the fitted dose curve at least 0.9, where 1 is the maximum; inactive = score below 0.9.
TEST_READOUT: outcome

Nc1ccc(Cl)cc1N : inactive
Nc1ccc(Cc2ccc(N)cc2)cc1 : inactive
Nc1cc(Cl)cc(C(=O)O)c1Cl : inactive

* * *

# Read-out: Vascular endothelial growth factor receptor 2 (Homo sapiens)
# EXPERIMENTAL_PROTOCOL: BSK_4H_VEGFRII: BioMAP Diversity Plus: 4H Assay for Vascular endothelial growth factor receptor 2 (VEGFR2) Biomarker Activity (AID 2283031);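 as to AC50: cell-surface VEGFR2 protein level quantified by ELISA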
# EXPERIMENTAL_SETUP: primary human endothelial cells (HUVEC); actives raise or lower the signal
The source made the active and inactive calls. The calls were made as follows: active = hit-call score of the fitted dose curve at least 0.9, where 1 is the maximum; inactive = score below 0.9.
TEST_READOUT: AC50

CN(C)C(=O)Nc1ccc(Cl)cc1 : inactive
Brc1ccc(Oc2ccccc2)cc1 : inactive
COc1cc(C=O)cc2c1[C@H](COC(N)=O)[C@]1(OC(C)=O)ON2C[C@H]2[C@@H]1N2C(C)=O : 4.42 µM (active)
